Values were extracted from paper PMC10397247.

Molecular target: T1, 4H43-AA
T1 chain: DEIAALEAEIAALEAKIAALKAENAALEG
Test: two-hybrid library CCmax;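 note: natural log of median RNA to DNA barcode read ratio; higher means stronger binding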
Conditions: mean of both orientations
measured_endpoint: interaction score

Please give the measured interaction score for this binder: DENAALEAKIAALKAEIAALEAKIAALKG [4H1350-AA]
2.09

Please give the measured interaction score for this binder: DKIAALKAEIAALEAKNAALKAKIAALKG [4H2622-AA]
1.57

Please give the measured interaction score for this binder: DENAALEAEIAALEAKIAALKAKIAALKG [4H1070-AA]
1.94

Please give the measured interaction score for this binder: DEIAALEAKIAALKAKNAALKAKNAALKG [4H384-AA]
0.71
